- assay_target: S. pneumoniae DSM20566 NA (Streptococcus pneumoniae)
- Construct: host or cells: either rNanA from E. coli BL21(DE3) or total precipitated protein of S. pneumoniae DSM20566
- Sequence (P62575 54-1035): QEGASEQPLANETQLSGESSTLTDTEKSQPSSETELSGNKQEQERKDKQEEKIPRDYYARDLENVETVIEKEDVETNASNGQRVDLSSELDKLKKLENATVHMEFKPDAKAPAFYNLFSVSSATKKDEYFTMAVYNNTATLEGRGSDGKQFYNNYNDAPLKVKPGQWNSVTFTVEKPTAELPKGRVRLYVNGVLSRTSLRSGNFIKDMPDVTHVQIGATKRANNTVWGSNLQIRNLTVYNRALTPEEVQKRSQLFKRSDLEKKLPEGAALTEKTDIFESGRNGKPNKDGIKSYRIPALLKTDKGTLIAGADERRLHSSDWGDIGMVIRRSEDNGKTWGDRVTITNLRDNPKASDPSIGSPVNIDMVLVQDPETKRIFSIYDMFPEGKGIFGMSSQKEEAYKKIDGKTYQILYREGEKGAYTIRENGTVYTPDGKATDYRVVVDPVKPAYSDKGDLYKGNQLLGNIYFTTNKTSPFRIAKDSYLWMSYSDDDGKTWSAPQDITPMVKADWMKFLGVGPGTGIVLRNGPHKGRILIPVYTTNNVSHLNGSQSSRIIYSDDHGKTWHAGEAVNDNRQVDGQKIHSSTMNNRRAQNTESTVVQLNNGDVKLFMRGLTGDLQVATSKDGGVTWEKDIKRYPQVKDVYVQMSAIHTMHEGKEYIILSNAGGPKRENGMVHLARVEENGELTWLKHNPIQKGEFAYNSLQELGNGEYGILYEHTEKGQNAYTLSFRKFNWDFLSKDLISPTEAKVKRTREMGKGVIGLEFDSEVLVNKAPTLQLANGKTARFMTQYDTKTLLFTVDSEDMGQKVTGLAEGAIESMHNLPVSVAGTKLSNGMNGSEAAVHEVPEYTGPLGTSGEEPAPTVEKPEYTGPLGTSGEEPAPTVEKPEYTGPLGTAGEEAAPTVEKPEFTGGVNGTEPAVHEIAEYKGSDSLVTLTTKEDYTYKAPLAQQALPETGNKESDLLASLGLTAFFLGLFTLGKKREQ
- assay_text: HA-based NA inhibition assay, S. pneumoniae DSM20566
- Type: cell-based
- run_parameters: human erythrocytes
readout_name: NA inhibition using HA assay MIC, S. p. DSM20566

See these solved cases before continuing.
O=[N+]([O-])c1cccc(/N=N/c2c(O)c(S(=O)(=O)O)cc3cc(S(=O)(=O)O)ccc23)c1 [Compound 13]: Not active
O=S(=O)(O)c1cc2cccc(S(=O)(=O)O)c2c(O)c1/N=N/c1ccccc1 [Compound 17]: Not active
COc1cc(/N=N/c2ccc(S(=O)(=O)O)cc2)ccc1/N=N/c1c(O)ccc2ccccc12 [Compound 7]: Not active^c
O=[N+]([O-])c1ccc(/N=N/c2c(O)ccc3cc(S(=O)(=O)O)ccc23)cc1 [Compound 11]: Not active
O=S(=O)(O)c1cc(/N=N/c2c(O)ccc3ccccc23)c2c(S(=O)(=O)O)cccc2c1 [Compound 15]: Not active^c

Respectfully, I request NA inhibition using HA assay MIC, S. p. DSM20566 for each entry included below.
1. O=S(=O)(O)c1ccc2c(/N=N/c3c(O)ccc4ccccc34)cccc2c1 [Compound 14]
2. O=S(=O)(O)c1ccc(/N=N/c2ccc(/N=N/c3c(O)c(S(=O)(=O)O)cc4cc(S(=O)(=O)O)ccc34)cc2)cc1 [Compound 9]
3. O=[N+]([O-])c1ccc(/N=N/c2c(O)c(S(=O)(=O)O)cc3cc(S(=O)(=O)O)ccc23)cc1 [Compound 12]
4. O=S(=O)(O)c1ccc2c(/N=N/c3ccccc3)c(O)ccc2c1 [Compound 10]
5. Cc1ccccc1/N=N/c1ccc(/N=N/c2c(O)ccc3cc(S(=O)(=O)O)ccc23)c(C)c1 [Compound 4]
6. O=S(=O)(O)c1cc(S(=O)(=O)O)c2c(/N=N/c3cccc4ccccc34)c(O)ccc2c1 [Compound 16]
7. O=S(=O)(O)c1ccc2c(/N=N/c3ccc(/N=N/c4ccccc4)cc3)c(O)ccc2c1 [Compound 3]

Output line:
1: Not active^c; 2: Not active; 3: Not active; 4: Not active^c; 5: Not active^c; 6: 24.40 ± 12.47 µM; 7: Not active^c
